- Experiment description: Rat plasma stability of 1 with or without protease inhibitors
- Assay type: in vitro ADME
- Stated conditions: t1/2, rat plasma, 60 nM bestatin, calculated after a 4 h incubation
Measurement kind: half-life (min)

{"columns": ["Smiles text", "Measurement kind", "Display unit", "Value observed"],
 "data": [
  ["CC[C@H](C)[C@H](NC(=O)[C@H](CCCNC(=N)N)NC(=O)[C@H](CC(C)C)NC(=O)[C@@H](N)Cc1ccccc1)C(=O)N[C@@H](CCCNC(=N)N)C(=O)N1CCC[C@H]1C(=O)N[C@@H](CCCCN)C(=O)O", "half-life", "min", 48]
]}

* * *

- Experiment description: Rat plasma stability of 1 with or without protease inhibitors
- Assay type: in vitro ADME
- Stated conditions: t1/2, rat plasma, 1 mM PMSF, calculated after a 4 h incubation
Measurement kind: half-life (min)

{"columns": ["Smiles text", "Value observed"],
 "data": [
  ["CC[C@H](C)[C@H](NC(=O)[C@H](CCCNC(=N)N)NC(=O)[C@H](CC(C)C)NC(=O)[C@@H](N)Cc1ccccc1)C(=O)N[C@@H](CCCNC(=N)N)C(=O)N1CCC[C@H]1C(=O)N[C@@H](CCCCN)C(=O)O", 48]
]}

* * *

Reported remaining at 120 h, 10 mg/mL by item:
- Experiment description: In vitro stability in rat plasma
- Assay type: in vitro ADME
- Stated conditions: rat, rat plasma

{"columns": ["Smiles text", "remaining at 120 h, 10 mg/mL, %"],
 "data": [
  ["CC[C@H](C)[C@H](NC(=O)[C@H](CCCNC(=N)N)NC(=O)[C@@H](CC(C)C)NC(=O)[C@@H](N)Cc1ccccc1)C(=O)N[C@@H](CCCNC(=N)N)C(=O)N1CCC[C@H]1C(=O)N[C@@H](CCCCN)C(=O)O", 66],
  ["CC[C@H](C)[C@H](NC(=O)[C@H](CCCNC(=N)N)NC(=O)[C@H](CC(C)C)N(C)C(=O)[C@@H](N)Cc1ccccc1)C(=O)N[C@@H](CCCNC(=N)N)C(=O)N1CCC[C@H]1C(=O)N[C@@H](CCCCN)C(=O)O", 31]
]}

* * *

- Experiment description: In vitro stability in rat plasma
- Assay type: in vitro ADME
- Stated conditions: rat, plasma, t1/2 in rat plasma, 37 °C, calculated from a 5 day stability test
Measurement kind: half-life (h)

{"columns": ["Compound", "Measurement kind", "Value observed"],
 "data": [
  ["CC[C@H](C)[C@H](NC(=O)[C@H](CCCNC(=N)N)NC(=O)[C@@H](CC(C)C)NC(=O)[C@@H](N)Cc1ccccc1)C(=O)N[C@@H](CCCNC(=N)N)C(=O)N1CCC[C@H]1C(=O)N[C@@H](CCCCN)C(=O)O [compound 16, H-Phe-D-Leu-Arg-Ile-Arg-Pro-Lys-OH]", "half-life", 160],
  ["CC[C@H](C)[C@H](NC(=O)[C@H](CCCNC(=N)N)NC(=O)[C@H](CC(C)C)N(C)C(=O)[C@@H](N)Cc1ccccc1)C(=O)N[C@@H](CCCNC(=N)N)C(=O)N1CCC[C@H]1C(=O)N[C@@H](CCCCN)C(=O)O [compound 21, H-Phe-NMeLeu-Arg-Ile-Arg-Pro-Lys-OH]", "half-life", 65]
]}

* * *

- Experiment description: In vitro stability in rat plasma
- Assay type: in vitro ADME
- Stated conditions: rat, rat plasma
Where a SMILES comes first, the peptide text is derived from it. [ ]: non-standard residue; d: D form. Nle = CCCC[C@H](N)C(=O)O

{"columns": ["Compound", "remaining at 24 h, 10 mg/mL"],
 "data": [
  ["CC[C@H](C)[C@H](NC(=O)[C@@H](CCCNC(=N)N)NC(=O)[C@H](CC(C)C)NC(=O)[C@@H](N)Cc1ccccc1)C(=O)N[C@@H](CCCNC(=N)N)C(=O)N1CCC[C@H]1C(=O)N[C@@H](CCCCN)C(=O)O", "62%"],
  ["CC[C@H](C)[C@H](NC(=O)[C@H](CCCNC(=N)N)NC(=O)[C@H](CC(C)C)NC(=O)[C@@H](N)Cc1ccccc1)C(=O)N[C@@H](CCCNC(=N)N)C(=O)N1CCC[C@H]1C(=O)N[C@H](CCCCN)C(=O)O", "0%"],
  ["CC[C@H](C)[C@H](NC(=O)[C@H](CCCNC(=N)N)NC(=O)[C@H](CC(C)C)N(C)C(=O)[C@@H](N)Cc1ccccc1)C(=O)N[C@@H](CCCNC(=N)N)C(=O)N1CCC[C@H]1C(=O)N[C@@H](CCCCN)C(=O)O", "100%"],
  ["CCCC[C@H](NC(=O)[C@H](CCCNC(=N)N)NC(=O)[C@H](CCCC)NC(=O)[C@@H](N)Cc1ccccc1)C(=O)N[C@@H](CCCNC(=N)N)C(=O)N1CCC[C@H]1C(=O)N[C@@H](CCCNC(=N)N)C(=O)O [compound 4, H-Phe-Nle-Arg-Nle-Arg-Pro-Arg-OH] (H-F[Nle]R[Nle]RPR-OH)", "0%"]
]}

* * *

- Assayed target: BK receptors
- Experiment description: Radioligand competition binding assay with [3H]BK in rat brain membranes
- Stated conditions: pH 6.8, rat brain membranes, 1 nM [3H]BK
Reported log[IC50], BK receptors, [3H]BK by item:
Measurement kind: log[IC50], BK receptors, [3H]BK

{"columns": ["Smiles text", "Measurement kind", "Value observed"],
 "data": [
  ["CC[C@H](C)[C@H](NC(=O)[C@H](CCCNC(=N)N)NC(=O)[C@@H](CC(C)C)NC(=O)[C@@H](N)Cc1ccccc1)C(=O)N[C@@H](CCCNC(=N)N)C(=O)N1CCC[C@H]1C(=O)N[C@@H](CCCCN)C(=O)O", "log[IC50], BK receptors, [3H]BK", "−6.90 ± 0.23"],
  ["CC[C@H](C)[C@H](NC(=O)[C@H](CCCNC(=N)N)NC(=O)[C@H](CC(C)C)NC(=O)[C@@H](N)Cc1ccccc1)C(=O)N[C@@H](CCCNC(=N)N)C(=O)N1CCC[C@H]1C(=O)N[C@@H](CCCCN)C(=O)O", "log[IC50], BK receptors, [3H]BK", "−6.83 ± 0.09"],
  ["CC[C@H](C)[C@H](NC(=O)[C@H](CCCNC(=N)N)NC(=O)[C@H](CC(C)C)NC(=O)[C@H](Cc1ccccc1)NC)C(=O)N[C@@H](CCCNC(=N)N)C(=O)N1CCC[C@H]1C(=O)N[C@@H](CCCCN)C(=O)O", "log[IC50], BK receptors, [3H]BK", "−6.06 ± 0.14"],
  ["CC[C@H](C)[C@H](NC(=O)[C@H](CCCNC(=N)N)NC(=O)[C@H](CC(C)C)NC(=O)[C@H](N)Cc1ccccc1)C(=O)N[C@@H](CCCNC(=N)N)C(=O)N1CCC[C@H]1C(=O)N[C@@H](CCCCN)C(=O)O", "log[IC50], BK receptors, [3H]BK", "−6.60 ± 0.14"]
]}

* * *

- Experiment description: In vitro stability in human plasma
- Format: in vitro ADME
- Stated conditions: human, human plasma
Reported remaining at 24 h, 10 mg/mL by item:
Measurement kind: remaining at 24 h, 10 mg/mL (%)

{"columns": ["Smiles text", "Measurement kind", "Value observed"],
 "data": [
  ["CC[C@H](C)[C@H](NC(=O)[C@H](CCCNC(=N)N)NC(=O)[C@@H](CC(C)C)NC(=O)[C@@H](N)Cc1ccccc1)C(=O)N[C@@H](CCCNC(=N)N)C(=O)N1CCC[C@H]1C(=O)N[C@@H](CCCCN)C(=O)O", "remaining at 24 h, 10 mg/mL", 99],
  ["CC[C@H](C)[C@H](NC(=O)[C@H](CCCNC(=N)N)NC(=O)[C@H](CC(C)C)NC(=O)[C@@H](N)Cc1ccccc1)C(=O)N[C@@H](CCCNC(=N)N)C(=O)N1CCC[C@H]1C(=O)N[C@@H](CCCCN)C(=O)O", "remaining at 24 h, 10 mg/mL", 0],
  ["CC[C@H](C)[C@H](NC(=O)[C@H](CCCNC(=N)N)NC(=O)[C@H](CC(C)C)N(C)C(=O)[C@@H](N)Cc1ccccc1)C(=O)N[C@@H](CCCNC(=N)N)C(=O)N1CCC[C@H]1C(=O)N[C@@H](CCCCN)C(=O)O", "remaining at 24 h, 10 mg/mL", 96]
]}

* * *

- Assayed target: BK receptors
- Experiment description: Radioligand competition binding assay with [3H]BK in rat brain membranes
- Stated conditions: read-out: IC50, BK receptors, [3H]BK; pH 6.8, rat brain membranes, 1 nM [3H]BK
Reported IC50 by item:

{"columns": ["Smiles text", "Assayed target", "Op", "IC50, nM"],
 "data": [
  ["CC[C@H](C)[C@H](NC(=O)[C@H](CCCNC(=N)N)NC(=O)[C@H](CC(C)C)NC(=O)[C@H](N)Cc1ccccc1)C(=O)N[C@@H](CCCNC(=N)N)C(=O)N1CCC[C@H]1C(=O)N[C@@H](CCCCN)C(=O)O", "BK receptors", "=", 250],
  ["CC[C@H](C)[C@H](NC(=O)[C@H](CCCNC(=N)N)NC(=O)[C@H](CC(C)C)NC(=O)[C@@H](N)Cc1ccccc1)C(=O)N[C@@H](CCCNC(=N)N)C(=O)N1CCC[C@H]1C(=O)N[C@H](CCCCN)C(=O)O", "BK receptors", "=", 830],
  ["CC[C@H](C)[C@H](NC(=O)[C@@H](CCCNC(=N)N)NC(=O)[C@H](CC(C)C)NC(=O)[C@@H](N)Cc1ccccc1)C(=O)N[C@@H](CCCNC(=N)N)C(=O)N1CCC[C@H]1C(=O)N[C@@H](CCCCN)C(=O)O", "BK receptors", "=", 310],
  ["CC[C@H](C)[C@H](NC(=O)[C@H](CCCNC(=N)N)NC(=O)[C@H](CC(C)C)NC(=O)[C@@H](N)Cc1ccccc1)C(=O)N[C@H](CCCNC(=N)N)C(=O)N1CCC[C@H]1C(=O)N[C@@H](CCCCN)C(=O)O", "BK receptors", "=", 5900],
  ["CC[C@H](C)[C@H](NC(=O)[C@H](CCCNC(=N)N)NC(=O)[C@H](CC(C)C)NC(=O)[C@@H](N)Cc1ccccc1)C(=O)N[C@@H](CCCNC(=N)N)C(=O)N1CCC[C@@H]1C(=O)N[C@@H](CCCCN)C(=O)O", "BK receptors", ">", 10000],
  ["CC[C@H](C)[C@H](NC(=O)[C@@H](CCCNC(=N)N)NC(=O)[C@H](CC(C)C)NC(=O)[C@H](N)Cc1ccccc1)C(=O)N[C@@H](CCCNC(=N)N)C(=O)N1CCC[C@H]1C(=O)N[C@@H](CCCCN)C(=O)O", "BK receptors", ">", 10000],
  ["CC[C@H](C)[C@H](NC(=O)[C@H](CCCNC(=N)N)NC(=O)[C@@H](CC(C)C)NC(=O)[C@H](N)Cc1ccccc1)C(=O)N[C@@H](CCCNC(=N)N)C(=O)N1CCC[C@H]1C(=O)N[C@@H](CCCCN)C(=O)O", "BK receptors", ">", 10000]
]}
